- System: Mus musculus
- Test summary: Antagonistic activity test against 5-Hydroxytryptamine-induced head shake in mouse after intraperitoneal administration
- Type: functional
- Run parameters: ip, read-out: ID50 (the source's name)
// classify: if (ED50 < 10 mg/kg) 1 else 0

[[record]]
molecule_smiles = "CCCOc1ccc(-c2cc3ccccc3nc2SCCN(C)C)cc1.Cl"
label = 1

[[record]]
molecule_smiles = "CN(C)CCSc1nc2ccccc2cc1C1CC1.O=C(O)C(=O)O"
label = 1

[[record]]
molecule_smiles = "COc1c(-c2ccccc2C)c(SCCN(C)C)nc2ccccc12.Cl"
label = 0

[[record]]
molecule_smiles = "CCc1cc2ccccc2nc1SCCN(C)C.Cl"
label = 0

[[record]]
molecule_smiles = "CN(C)CCSc1nc2ccccc2cc1-c1ccc(Cl)cc1.Cl"
label = 1

